# credit: patent US20230399403A1

# Measurement target: T1, full-length human PD-1 expressed on cells (human, UniProt Q15116 25-288)
# T1 construct: also called HEK-293 cells ectopically expressing full-length human-PD1 (BPS Biosciences)
# T1 sequence (Q15116 25-288 limits assumed): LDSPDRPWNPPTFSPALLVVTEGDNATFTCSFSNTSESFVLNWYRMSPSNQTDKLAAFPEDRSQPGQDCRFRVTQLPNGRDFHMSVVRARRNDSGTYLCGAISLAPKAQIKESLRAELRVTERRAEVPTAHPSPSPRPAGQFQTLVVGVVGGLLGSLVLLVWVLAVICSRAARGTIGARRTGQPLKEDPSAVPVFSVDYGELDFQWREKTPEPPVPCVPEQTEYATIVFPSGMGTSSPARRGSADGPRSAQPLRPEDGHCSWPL
# Procedure text: cell binding, HEK-293 cells expressing full-length human PD-1, CellInsight CX5 imaging
# Experimental: Binding of chimeric and humanized anti-PD-1 antibodies to cell surface expressed hPD-1 was analyzed using HEK-293 cells ectopically expressing full-length human-PD1 (BPS Biosciences; Cat. No. 60680). […] Cell-associated immunofluorescent signals were recorded using a CellInsight CX5 high content imager device (Thermo Fisher). Data was fitted with a 4-parameter logistic model and EC50 values calculated using GraphPad Prism 8.4.3.
Measurement type: EC50 (µg/mL)
# value in µg/mL; strip the unit string

* MAB-19-0233 (antibody, human IgG1, V domains shown, Chimeric rabbit/human antibody, human IgG1 constant parts with L234A and L235A (LALA)) VH: QSLEESGGDLVKPGASLTLTCKASGIDFSSVYYMCWVRQAPGKGLEWIACIYVGSSGVSYYATWAKGRFTISKTSSTTVTLQMTSLTAADTATYFCARAGYVGAVYVTLTRLDLWGQGTLVTVSS VL: AAVLTQTPSPVSAAVGGTVTISCQSSQSIYTNNDLAWYQQKPGQPPKLLIYDASKLASGVPSRFSGSGSGTQFTLTISGVQSDDAATYYCLGGYDDDADNAFGGGTEVVVK | 0.0168

Problem: What value of EC50 has been recorded for this entry: MAB-19-0223 (antibody, human IgG1, V domains shown, Chimeric rabbit/human antibody, human IgG1 constant parts with L234A and L235A (LALA); also called chimeric anti-PD-1 MAB-19-0223) VH: QEHLVESGGGLVQPEGSLTLTCKASGIDFSDTYWICWVRQPPGKGLEWIGCIGIGGSGSTYYAGWAKGRFTISKTSSTTVTLQMTTLTDADTATYFCATEIPYFNVWGPGTLVTVSS VL: AQVLTQTPSSVSAAVGGTVTINCQSSQSVYNKNWLAWYQQKPGQPPKLLIYDASKLTSGVPSRFKGSGSGTQFTLTISGVQSDDAATYYCQGTYDVNGWLVAFGGGAEVVVK
Result: 0.007

Problem: What value of EC50 has been recorded for this entry: MAB-19-0208 (antibody, human IgG1, V domains shown, Chimeric rabbit/human antibody, human IgG1 constant parts with L234A and L235A (LALA); also called chimeric anti-PD-1 MAB-19-0208) VH: QSVEESGGRLVTPGTPLTLTCTVSGFSLSRYYISWVRQAPGKGLEWIGSFYADSGTTWYATWVKGRFTFSTASSTTVDLKMTSPTTEDTATYFCARNSGDAQFNIWGPGTLVTVSS VL: AAVLTQTPSPVSAAVGGTVSISCQSSESVYNKNQLCWYQQKPGQRPKLLIYDASTLASGVPSRFSGSGSGTQFTLTISDVQSDAAATYYCAGGYSVTSDTTFGGGTEVVVR
Result: 0.0139

Problem: What value of EC50 has been recorded for this entry: MAB-19-0217 (antibody, human IgG1, V domains shown, Chimeric rabbit/human antibody, human IgG1 constant parts with L234A and L235A (LALA); also called chimeric anti-PD-1 MAB-19-0217) VH: QSVEESGGRLVTPGTPLTLTCTVSGFSLSRYYMTWVRQAPGKGLEWIGIIYPDTGTTWYASWVKGRFTFSKTSSTTVDLKMTSPTTEDTATYFCARSTTDAQFNIWGPGTLVTVSS VL: AAVLTQTPSPVSAAVGGTVSISCQSSENVYTDNQLCWYQQKPGQRPKLLIYDASTLASGVPSRFSGSGSGTQFTLTISGVQSDDAATYYCAGGYSTTSDTTFGGGTEVVVK
Result: 0.0063
